- ASSAY EXPLANATION: LD50 (acute toxicity)
- CONDITION LABEL: in vivo; Oral; mouse; 72 hr after administration; Litchfield-Wilcoxon method; read-out: LD₅₀
PROPERTY LABEL: LD50 at 72 hr (mg/kg)

>>> numeric_readout("CCCCC/C=C/C(O)CCc1ccc(O)c(OC)c1 (stereo not shown)")
1340

====

- MEASUREMENT TARGET: 5-lipoxygenase (Rattus norvegicus, UniProt P12527)
- Construct: endogenous in cells
- Sequence (P12527 whole entry): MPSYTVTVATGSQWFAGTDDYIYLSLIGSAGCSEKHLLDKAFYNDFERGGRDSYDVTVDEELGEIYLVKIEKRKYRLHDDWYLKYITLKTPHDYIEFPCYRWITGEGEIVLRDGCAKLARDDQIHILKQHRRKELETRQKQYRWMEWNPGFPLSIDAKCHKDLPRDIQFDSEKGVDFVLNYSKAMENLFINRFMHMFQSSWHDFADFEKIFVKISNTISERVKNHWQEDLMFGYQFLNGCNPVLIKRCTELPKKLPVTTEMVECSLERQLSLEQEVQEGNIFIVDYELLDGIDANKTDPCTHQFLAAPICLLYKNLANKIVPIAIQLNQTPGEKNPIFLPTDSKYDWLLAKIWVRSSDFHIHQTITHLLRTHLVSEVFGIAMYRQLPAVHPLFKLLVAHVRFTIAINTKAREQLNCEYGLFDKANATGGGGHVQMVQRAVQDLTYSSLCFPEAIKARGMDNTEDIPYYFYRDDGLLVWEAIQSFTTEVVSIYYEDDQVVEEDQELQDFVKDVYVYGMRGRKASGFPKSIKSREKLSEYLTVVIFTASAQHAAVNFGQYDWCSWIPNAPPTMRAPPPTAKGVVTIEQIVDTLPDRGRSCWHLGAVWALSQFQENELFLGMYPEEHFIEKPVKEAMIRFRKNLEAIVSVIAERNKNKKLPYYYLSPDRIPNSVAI
- ASSAY EXPLANATION: 5-Lipoxygenase inhibitory activity (5-HETE formation, HPLC)
- CONDITION LABEL: enzyme preparation from RBL-1 culture cells; 10 µM arachidonic acid; 37°C, 10 min; read-out: IC₅₀
pIC50: −log10 of the molar value.
PROPERTY LABEL: pIC50

>>> numeric_readout("CCCCC/C=C/C(O)CCc1ccc(O)c(OC)c1 (stereo not shown)")
6.27

====

- ASSAY EXPLANATION: LD50 (acute toxicity)
- CONDITION LABEL: in vivo; Intravenous; mouse; 72 hr after administration; up-and-down method; read-out: LD₅₀
PROPERTY LABEL: LD50 at 72 hr (mg/kg)

>>> numeric_readout("CCCCC/C=C/C(O)CCc1ccc(O)c(OC)c1 (stereo not shown)")
75.6
